B1: TPR 5TU (parent)
chain: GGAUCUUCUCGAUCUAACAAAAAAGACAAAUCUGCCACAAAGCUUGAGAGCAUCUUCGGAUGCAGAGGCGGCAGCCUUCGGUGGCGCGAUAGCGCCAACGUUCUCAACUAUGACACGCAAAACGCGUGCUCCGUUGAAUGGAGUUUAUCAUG

Variants of: B1
Assay: polymerase ribozyme fitness, log enrichment relative to wild type (log ratio); higher = more active; in vitro selection for triplet polymerase activity
This sample holds only a part of the variants without activity.
Assign class by polymerase ribozyme fitness (log ratio): not lower than -2 means True; lower than -2 means False.

Recorded results for 2 variants are shown here.
A17U A39C A60C G86C C87A
False
C27U A52C A60U C76U G84U C96G U109C
False

# next variant below
Identify whether the reported polymerase ribozyme fitness (log ratio) of the following variant is -2 or greater: C85G C125A C131A C149U
False
